Attribute: inhibition
Target Desc: Protein phosphatase methylesterase 1 (Mus musculus)
Assay Summary: PME-1 probe labeling blockade in lysate – cell lysate, mouse brain cytosol, FP-rhodamine, in-gel fluorescence, orthogonal assay for PME-1 inhibitor project, late-stage follow-up (AID 2369)
Protocol Conditions: FP-rhodamine gel ABPP, band fluorescence, at 20 µM, hits give high values
Activity calls are given as the source filed them. How the calls were made is not given here.

| Smiles Representation | Target Desc | inhibition |
| --- | --- | --- |
| CS(=O)(=O)/C(C#N)=C/c1cccn1-c1ccc(C(F)(F)F)cc1 | Protein phosphatase methylesterase 1 (Mus musculus) | 0% (inactive) |
| N#C/C(=C\c1cccn1S(=O)(=O)c1cccc(OC(F)(F)F)c1)S(=O)(=O)c1ccc(F)cc1 | Protein phosphatase methylesterase 1 (Mus musculus) | 75% |
| N#C/C(=C\c1cccn1-c1cc(Cl)cc(Cl)c1)S(=O)(=O)c1ccccc1 | Protein phosphatase methylesterase 1 (Mus musculus) | 0% (inactive) |
| N#C/C(=C\c1cccn1S(=O)(=O)c1cccc(C#N)c1)S(=O)(=O)c1ccc(Cl)cc1 | Protein phosphatase methylesterase 1 (Mus musculus) | 85% |
| COC(=O)c1[nH]c2ccccc2c1/C=C(\C#N)S(C)(=O)=O | Protein phosphatase methylesterase 1 (Mus musculus) | 0% (inactive) |
| N#C/C(=C\c1cccn1S(=O)(=O)c1cccc([N+](=O)[O-])c1)S(=O)(=O)c1ccc(F)cc1 | Protein phosphatase methylesterase 1 (Mus musculus) | 90% |
| N#C/C(=C\c1cccn1S(=O)(=O)c1cccc(Cl)c1)S(=O)(=O)c1ccc(F)cc1 | Protein phosphatase methylesterase 1 (Mus musculus) | 80% |
| N#C/C(=C\c1cccn1-c1ccc(OC(F)(F)F)cc1)S(=O)(=O)c1ccccc1 | Protein phosphatase methylesterase 1 (Mus musculus) | 0% (inactive) |
| CS(=O)(=O)/C(C#N)=C\c1cnc(S(=O)(=O)c2ccccc2)s1 | Protein phosphatase methylesterase 1 (Mus musculus) | 0% (inactive) |
| COc1cccc(S(=O)(=O)n2cccc2/C=C(\C#N)S(=O)(=O)c2ccc(F)cc2)c1 | Protein phosphatase methylesterase 1 (Mus musculus) | 60% (inactive) |
| Cc1ccc(-c2nc3sccn3c2/C=C(\C#N)S(C)(=O)=O)cc1 | Protein phosphatase methylesterase 1 (Mus musculus) | 0% (inactive) |
| CS(=O)(=O)/C(C#N)=C\c1ccc(-n2cc(/C=C(/C#N)S(C)(=O)=O)c3ccccc32)cc1 | Protein phosphatase methylesterase 1 (Mus musculus) | 0% (inactive) |
| Cc1cc(C)n(-c2ccc(-n3cccc3/C=C(\C#N)S(C)(=O)=O)cc2)n1 | Protein phosphatase methylesterase 1 (Mus musculus) | 0% (inactive) |
| Cc1ccc(-n2cccc2/C=C(\C#N)S(C)(=O)=O)c([N+](=O)[O-])c1 | Protein phosphatase methylesterase 1 (Mus musculus) | 0% (inactive) |
| Cc1cc(C)n(-c2ccc(-n3cccc3/C=C(/C#N)S(=O)(=O)c3ccccc3)cc2)n1 | Protein phosphatase methylesterase 1 (Mus musculus) | 0% (inactive) |
| N#C/C(=C\c1cccn1S(=O)(=O)c1cccc(C#N)c1)S(=O)(=O)c1ccc(Br)cc1 | Protein phosphatase methylesterase 1 (Mus musculus) | 70% |
| CS(=O)(=O)/C(C#N)=C/c1cn(Cc2cnc(Cl)s2)c2ccccc12 | Protein phosphatase methylesterase 1 (Mus musculus) | 0% (inactive) |
| COc1ccc2[nH]c(/C=C(\C#N)S(C)(=O)=O)cc2c1 | Protein phosphatase methylesterase 1 (Mus musculus) | 0% (inactive) |
| CS(=O)(=O)/C(C#N)=C/c1cccn1-c1ccc(OC(F)(F)F)cc1 | Protein phosphatase methylesterase 1 (Mus musculus) | 0% (inactive) |
| CCSc1ncc(/C=C(/C#N)S(C)(=O)=O)n1C | Protein phosphatase methylesterase 1 (Mus musculus) | 0% (inactive) |
